From: ChEMBL document CHEMBL1133613

- target: Serotonin receptor 2a and 2c (5HT2A and 5HT2C) (Rattus norvegicus) (UniProt P08909+P14842)
- Sequence (P08909 whole entry, looked up): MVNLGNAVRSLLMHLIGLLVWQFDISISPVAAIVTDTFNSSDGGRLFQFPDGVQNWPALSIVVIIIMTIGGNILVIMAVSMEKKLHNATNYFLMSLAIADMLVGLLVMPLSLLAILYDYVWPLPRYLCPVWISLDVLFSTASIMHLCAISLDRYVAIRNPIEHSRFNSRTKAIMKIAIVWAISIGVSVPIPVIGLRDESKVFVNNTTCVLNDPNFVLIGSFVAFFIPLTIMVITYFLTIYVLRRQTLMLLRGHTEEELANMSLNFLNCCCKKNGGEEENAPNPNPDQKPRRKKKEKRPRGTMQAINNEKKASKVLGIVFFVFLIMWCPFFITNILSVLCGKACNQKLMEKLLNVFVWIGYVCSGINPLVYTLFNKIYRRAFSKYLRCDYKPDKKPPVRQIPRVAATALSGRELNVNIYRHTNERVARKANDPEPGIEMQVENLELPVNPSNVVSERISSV
- Sequence (P14842 whole entry, looked up): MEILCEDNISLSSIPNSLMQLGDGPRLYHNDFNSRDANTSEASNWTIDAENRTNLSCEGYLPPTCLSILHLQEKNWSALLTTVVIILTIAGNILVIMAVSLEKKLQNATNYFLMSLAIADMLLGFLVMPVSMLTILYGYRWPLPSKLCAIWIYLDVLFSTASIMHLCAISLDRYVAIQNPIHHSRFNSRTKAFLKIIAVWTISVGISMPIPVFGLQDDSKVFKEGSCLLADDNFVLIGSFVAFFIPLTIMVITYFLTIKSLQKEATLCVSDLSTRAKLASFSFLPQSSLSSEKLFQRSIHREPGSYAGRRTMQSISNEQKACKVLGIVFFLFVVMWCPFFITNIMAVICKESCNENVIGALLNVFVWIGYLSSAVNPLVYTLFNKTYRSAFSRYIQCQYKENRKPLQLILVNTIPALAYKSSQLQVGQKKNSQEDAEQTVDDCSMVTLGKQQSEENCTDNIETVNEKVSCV
- assay: Relative affinities for rat 5-HT2C receptors and 5-HT2A receptors
- Type: protein assay
So basically: is Selectivity under 7? Then satisfied. Not under? Then not satisfied.

> print(dat)
                         compound                                    target  assignedclass
1   COc1cc(CCc2ccccc2)c(OC)cc1CCN  Serotonin receptor 2a and 2c (5HT2A and 5HT2C) (Rattus norvegicus) (UniProt P08909+P14842)      satisfied
2  COc1cc(CCCc2ccccc2)c(OC)cc1CCN  Serotonin receptor 2a and 2c (5HT2A and 5HT2C) (Rattus norvegicus) (UniProt P08909+P14842)      satisfied

Req: A record lists COc1cc(CC(C)N)c(OC)cc1CCCc1ccccc1 (stereo not given) . Is its Selectivity below 7?
Resp: satisfied
